- target: TIE2 (Homo sapiens)
- Construct: made in house
- Sequence (Q02763 23-1124, species assumed): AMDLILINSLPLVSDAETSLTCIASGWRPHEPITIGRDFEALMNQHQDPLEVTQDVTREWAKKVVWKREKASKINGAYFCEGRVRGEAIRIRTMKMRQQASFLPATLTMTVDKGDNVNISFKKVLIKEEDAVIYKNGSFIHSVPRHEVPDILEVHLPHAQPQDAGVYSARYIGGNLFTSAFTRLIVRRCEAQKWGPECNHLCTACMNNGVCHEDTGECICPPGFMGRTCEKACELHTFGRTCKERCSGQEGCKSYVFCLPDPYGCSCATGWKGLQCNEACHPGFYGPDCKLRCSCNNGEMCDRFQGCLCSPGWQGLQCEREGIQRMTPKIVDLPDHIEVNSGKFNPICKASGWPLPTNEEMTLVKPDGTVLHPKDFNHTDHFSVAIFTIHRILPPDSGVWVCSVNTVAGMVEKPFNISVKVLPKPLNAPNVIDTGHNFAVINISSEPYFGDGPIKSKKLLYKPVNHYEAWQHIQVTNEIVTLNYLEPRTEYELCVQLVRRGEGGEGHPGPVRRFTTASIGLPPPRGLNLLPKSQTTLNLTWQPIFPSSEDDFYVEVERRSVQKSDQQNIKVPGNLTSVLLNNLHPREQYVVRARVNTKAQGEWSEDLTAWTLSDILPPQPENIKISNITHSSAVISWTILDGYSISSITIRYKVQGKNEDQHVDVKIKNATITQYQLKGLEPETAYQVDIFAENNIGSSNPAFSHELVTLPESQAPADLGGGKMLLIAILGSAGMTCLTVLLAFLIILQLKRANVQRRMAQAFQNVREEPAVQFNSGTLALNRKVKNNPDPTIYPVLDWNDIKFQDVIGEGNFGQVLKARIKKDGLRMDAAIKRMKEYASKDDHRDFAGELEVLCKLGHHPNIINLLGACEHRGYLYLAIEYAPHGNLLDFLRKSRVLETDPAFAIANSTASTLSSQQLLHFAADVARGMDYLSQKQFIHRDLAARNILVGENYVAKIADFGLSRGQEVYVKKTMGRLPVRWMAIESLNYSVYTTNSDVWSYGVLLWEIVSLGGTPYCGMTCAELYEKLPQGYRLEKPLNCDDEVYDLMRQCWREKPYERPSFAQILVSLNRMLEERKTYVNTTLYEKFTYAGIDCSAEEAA
- test: TIE2 kinase assay, 33P-ATP incorporation, residual activity
- Format: biochemical
- experimental.conditions: compounds marked !: tested at 2.5 micromolar

# molecule, target, Tie2
data = [
    ("COc1ccc(-c2c(C(N)=O)nnn2[C@@H]2O[C@H](Cn3c(-c4ccc(OCc5ccccc5)cc4)nc4cc(Cl)c(Cl)cc43)[C@@H](O)[C@H]2O)cc1 [compound 670]", "TIE2 (Homo sapiens)", 1),
    ("NC(=O)c1nnn([C@@H]2O[C@H](Cn3c(-c4ccc(OCc5ccccc5)cc4)nc4cc(Cl)c(Cl)cc43)[C@@H](O)[C@H]2O)c1-c1ccccc1 [compound 668]", "TIE2 (Homo sapiens)", 1),
    ("NC(=O)c1nnn([C@@H]2O[C@H](Cn3c(-c4ccc(OCc5ccccc5)cc4)nc4cc(Cl)c(Cl)cc43)[C@@H](O)[C@H]2O)c1-c1ccc(Cl)cc1 [compound 669]", "TIE2 (Homo sapiens)", 1),
    ("CCCCCCCCOc1ccc(-c2nc3c(NC)ncnc3n2C[C@H]2O[C@@H](n3nnc(C(N)=O)c3-c3ccccc3)[C@H](O)[C@@H]2O)cc1 [compound 725]", "TIE2 (Homo sapiens)", 10),
]
